Reported TGI by item:
System: HOP-18 NSCLC
Experiment: NCI tumour cell line growth inhibition, 48 h
property: TGI

1) CN1C(=O)C2C=CC1C1CCC2N(C)C1=O (stereo not given)	> 100 µM
2) S=P(N1CCCC1)(N1CC1)N1CC1	> 100 µM
3) Clc1ccc(-c2c(C3=NCCN3)nnn2-c2ccccc2)cc1	> 100 µM
4) COc1ccc(N2C(=O)C3c4[nH]c5ccccc5c4C4CCCCCCC4C3C2=O)cc1 (stereo not given)	3.2 µM
5) CC1=C(/C=C/C(C)=C/C=C/C(C)=C/C=C/C=C(C)/C=C/C=C(C)/C=C/C2=C(C)C(=O)C(O)CC2(C)C)C(C)(C)CC(O)C1=O (stereo not given)	> 100 µM

* * *

Property: TGI; scope: individual compounds
System: COLO 205 colon
Test: NCI tumour cell line growth inhibition, 48 h
property: TGI

1. CC(=O)O[C@H]1CCC2[C@@H]3CCC4NC(=O)C(C#N)C[C@]4(C)C3CC[C@@]21C (stereo partly specified)	> 10 µM
2. C=CC(OC(C)=O)c1ccc(OC(C)=O)cc1 (stereo unspecified)	12.9 µM
3. N=c1ccc2nc3c(cc(N)c4ccccc43)oc-2c1	0.892 µM
4. C[C@]12CCC(=O)C=C1CC[C@@H]1[C@@H]2[C@@H](O)C[C@@]2(C)[C@H]1CC[C@]2(O)C(=O)COC(=O)CCC1CCCC1	> 100 µM
5. COc1ccc(NC(=O)n2nc(/C=C\c3ccc(O)c(OC)c3)cc2/C=C\c2ccc(O)c(OC)c2)cc1	44.3 µM
6. CC(C)(CN1CCCCC1)C(/C=C/c1ccccc1)=N\NC(=O)N/N=C(/C=C/c1ccccc1)C(C)(C)CN1CCCCC1	2.81 µM
7. NNC(=O)Cn1ccnn1	> 100 µM
8. Cc1nn(CNc2ccccc2C(F)(F)F)c(=S)n1/N=C/c1ccc(F)cc1	> 100 µM
9. CC(C)(C)C(=O)N1CCN(C=O)C1=S	> 100 µM
10. NC(=S)N/N=C1\CCCC1C(O)(C(F)(F)Cl)C(F)(F)Cl (stereo unspecified)	> 10 µM
11. [N-]=[N+]=CC(=O)COC(=O)c1ccccc1	> 100 µM
12. CCOC(=O)c1c(-c2ccccc2)c(C(OC(c2ccccc2)c2c(-c3ccccc3)c(C(=O)OCC)n3ccccc23)c2ccccc2)c2ccccn12 (stereo unspecified)	> 100 µM
13. Cc1ccc(NC2=N/C(=C/c3ccco3)C(Cl)=N2)cc1	> 100 µM
14. Cn1cc(C2=C(c3cn(C)c4cc(N)ccc34)C(=O)NC2=O)c2ccccc21	9.59 µM
15. CC[C@H](Nc1nc(N)nc(C2CC2)c1C#N)c1nc2cccc(NCc3ccc(C(=O)NO)cc3)c2c(=O)n1-c1ccccc1	5.75 µM
16. C=C(CCOC)CCC1CCCCC(=C)[C@H]1O (stereo partly specified)	> 100 µM

* * *

Tested on: CAKI-1 renal
Assay: NCI tumour cell line growth inhibition, 48 h
property: TGI

1. COc1cc2c3c(c1OC)C1(C=CC(=O)C=C1)CC3NCC2 (centres undefined)	> 100 µM
2. O=C1CCN2CCC(=O)c3c2c(cc2ccccc32)N1	> 100 µM
3. C[PH+](c1nc2ccccc2nc1[PH+](C)C(C)(C)C)C(C)(C)C.C[PH+](c1nc2ccccc2nc1[PH+](C)C(C)(C)C)C(C)(C)C.[Au+].[Cl-] (centres undefined)	0.537 µM
4. N=C(N)c1ccc(-c2ccc(-c3cc(Cl)cc(Cl)c3)o2)o1	3.11 µM
5. NC(=S)NNC(=S)NC(=O)c1ccco1	> 10 µM
6. CC(C#N)N(CCc1ccccc1)C(=O)c1ccccc1 (centres undefined)	> 100 µM
7. COc1cccc(C23CCCC(C2)N(C)CC3OC(=O)c2ccccc2)c1OC (centres undefined)	> 100 µM
8. CC[C@@]12C=CCN3CC[C@]4(c5cc(NC(=O)COc6cc(OCC(=O)Nc7cc8c(cc7OC)N(C)[C@H]7[C@@](O)(C(=O)OC)[C@H](OC(C)=O)[C@]9(CC)C=CCN%10CC[C@]87[C@@H]%109)cc7oc(-c8ccccc8)cc(=O)c67)c(OC)cc5N(C)[C@@H]4[C@](O)(C(=O)OC)[C@H]1OC(C)=O)[C@H]32	> 100 µM
9. N#Cc1c(C[n+]2ccccc2)c2ccccc2oc1=O	> 100 µM

* * *

TGI: recorded values
System: K-562 leukemia
Test: NCI tumour cell line growth inhibition, 48 h
property: TGI

1. COc1cc2ncnc3c2cc1OCCCCCN(C)Cc1ccc(Br)cc1N3	> 100 µM
2. COC(=O)[C@@H]1C=C[C@H](NC(C)=O)C1	> 100 µM
3. COc1cc(C2c3cc4c(cc3[C@@H](OCCN(C)C)C3COC(=O)[C@H]23)OCO4)cc(OC)c1O (stereo partly specified)	> 100 µM
4. CC1=NN2C(=N)/C(=C/c3ccccc3)C(=O)N=C2S1	> 100 µM
5. CCN(CC)CCOc1c(OC)c(Br)cc2c(C)c(C(=O)OC)oc12	2.09 µM
6. O=c1c2cc(Br)ccc2ncn1COCc1ccccc1	> 100 µM
7. COC(=O)c1cc(C)ccc1/C=C1\Cc2c(C)cc(C)cc2C1=O	> 100 µM
8. O=[N+]([O-])c1ccc2c(c1)n1c(N3CCCC3)[n+]3ccccc3c1c1c3cccc[n+]3c(N3CCCC3)n21	88.2 µM
9. COC(=O)c1cc(-c2ccc(OC)cc2)[nH]c1N/N=C/c1c(Cl)cccc1Cl	6.65 µM
10. NC(=S)N/N=C1\CCCC1C(O)(C(F)(F)Cl)C(F)(F)Cl (stereo unspecified)	> 10 µM
11. Nc1ccc2c(c1)NC(=O)[C@@H]1CCCN1C2=O	> 100 µM
12. COC(=O)[C@H]1[C@H]2C[C@@H]3c4[nH]c5cc(OC)ccc5c4CCN3C[C@H]2C[C@@H](OC(=O)/C=C/c2cc(OC)c(OC)c(OC)c2)[C@@H]1OC	38.4 µM
13. COC(=O)[C@@]1(C)CCC[C@]2(C(=O)O)C3Cc4occc4[C@H](C)[C@@H]3CCC21 (stereo partly specified)	> 100 µM
14. COc1ccccc1NC(=O)C1=C(C)NC(C)=C(C(=O)Nc2ccccc2OC)C1c1ccc(N(C)C)cc1	54.3 µM
15. COc1cc(C)cc2c(-c3c(O)cc(O)c4c3C[C@H](C)N[C@H]4C)cc(-c3cc(-c4c(O)cc(O)c5c4C[C@H](C)N[C@H]5C)c4cc(C)cc(OC)c4c3O)c(O)c12	> 100 µM
16. C/C(=C(/c1ccc(O)cc1)c1ccc(Cl)cc1)c1ccccc1	2.83 µM
17. Cn1c2ccc(C3=NCCN3)cc2c2cc(C3=NCCN3)ccc21	> 100 µM
18. Clc1ccc2ns[s+]c2c1	> 100 µM
19. CCN(CC)/[N+]([O-])=N/O	> 100 µM
20. CN1C(=O)C2C=CC1C1CCC2N(C)C1=O (stereo unspecified)	> 100 µM
21. C=CC(OC(C)=O)c1ccc(OC(C)=O)cc1 (stereo unspecified)	> 100 µM

* * *

Tested on: IGROV1 ovarian
Experiment: NCI tumour cell line growth inhibition, 48 h
# TGI values compiled below
property: TGI

1) COc1cc(S(=O)(=O)Nc2ccc(-c3csc(/N=C\c4ccccc4)n3)cc2)ccc1Cl	> 100 µM
2) CCOC(=O)Cc1csc(N=Nc2c(O)[nH]c3ccccc23)n1	> 100 µM
3) Oc1c(CN2CCCC2)cc(CSCc2ccccc2)c2cccnc12	11.3 µM
4) CN1c2ccccc2S(=O)(=O)n2c(CCc3ccccc3)nnc21	> 100 µM
5) CC(=O)c1cc(-c2ccccc2N)n(-c2ccc3c(c2)OCO3)c1C	> 100 µM
6) C/C=C(/C)c1cnc(CC(C)C)c(=O)[nH]1	> 100 µM
7) O=c1nc2ccc3sc4ccccc4c(=O)c3n2c(=O)[nH]1	> 100 µM
8) CSc1nsc(S/C=C\C(=O)c2ccc(C)cc2)n1	> 100 µM
9) Cc1cc(=O)oc2cc(OC(=O)N(CCCl)CCCl)ccc12	> 100 µM
10) COC(=O)c1ccc2c(c1)C(=O)c1c-2n(CCCN)c(=O)c2cc(OC)c(OC)cc12	29.2 µM
11) COC(=O)c1cc(C)ccc1/C=C1\Cc2c(C)cc(C)cc2C1=O	> 100 µM

* * *

System: K-562 leukemia
Assay: NCI tumour cell line growth inhibition, 48 h
Reported TGI values are given for each entry in this list.
property: TGI

1) CCN1CCCn2c(=O)[nH]c3cc(Br)cc1c32	> 100 µM
2) NC1c2c(Cl)sc(Cl)c2C(=O)C1O (stereo unspecified)	> 100 µM
3) COC1(OC)C=CC(=O)C=C1	> 100 µM
4) O=C1CCN2CCC(=O)c3c2c(cc2ccccc32)N1	> 100 µM
5) N#Cc1c(N2CCN(c3ccc([N+](=O)[O-])cc3)CC2)[n+](=O)c2ccc(-c3ccc([N+](=O)[O-])cc3)cc2n1[O-]	> 100 µM
6) COc1cccc(NC(=O)CC(=O)N2N=C(C)C(N=Nc3ccc(C(=O)O)cc3)C2=O)c1 (stereo unspecified)	> 100 µM
7) N=c1ccc2nc3c(cc(N)c4ccccc43)oc-2c1	1.18 µM
8) CN(C)CCCc1c2ccccc2nc2ccc(Cl)cc12	67.7 µM
9) [N-]=[N+]=CC(=O)COC(=O)c1ccccc1	> 100 µM
10) CC1CN=C(c2ccc(CN3CCC(C4CCN(Cc5ccc(C6=NCC(C)N6)cc5)CC4)CC3)cc2)N1 (stereo unspecified)	44.8 µM
11) Cc1c(Cl)cccc1NC(=O)/C(Cl)=C(\Cl)C(=O)O	> 100 µM

Entry source: PubChem BioAssay (NCI)
